Values compiled from ChEMBL document CHEMBL3751833.

pIC50: −log10 of the molar value.
Metric Name: pIC50

With Prostaglandin E2 receptor EP2 subtype (Homo sapiens) as the test system, Cc1ccc(-c2cccc(CO)c2)nc1C(=O)Nc1c(C)ccc(C(=O)O)c1C showed pIC50 of < 4.60

====

- Protocol Description: Clearance in dog at 1 mg/kg, iv
- Type: ADME, organism-based, Canis lupus familiaris
- Recorded Conditions: in vivo
Metric Name: clearance (mL/min/kg)
Number in mL/min/kg, nothing else.

Field clearance (entry Cc1ccc(-c2cccc(CO)c2)nc1C(=O)Nc1c(C)ccc(C(=O)O)c1C ) reads 3.7

====

- Protocol Description: AUC in dog at 5 mg/kg, po
- Assay type: ADME, organism-based, Canis lupus familiaris
- Recorded Conditions: in vivo
Metric Name: AUC
For clarity, give the value followed by its unit.

Field AUC (entry Cc1ccc(-c2cccc(CO)c2)nc1C(=O)Nc1c(C)ccc(C(=O)O)c1C ) reads 10900 ng·h/mL

====

pIC50: −log10 of the molar value.
Metric Name: pIC50

With Cytochrome P450 2C19 (Homo sapiens, UniProt P33261) as the test system, Cc1ccc(-c2cccc(CO)c2)nc1C(=O)Nc1c(C)ccc(C(=O)O)c1C showed pIC50 of < 5.00

====

Sequence of the target: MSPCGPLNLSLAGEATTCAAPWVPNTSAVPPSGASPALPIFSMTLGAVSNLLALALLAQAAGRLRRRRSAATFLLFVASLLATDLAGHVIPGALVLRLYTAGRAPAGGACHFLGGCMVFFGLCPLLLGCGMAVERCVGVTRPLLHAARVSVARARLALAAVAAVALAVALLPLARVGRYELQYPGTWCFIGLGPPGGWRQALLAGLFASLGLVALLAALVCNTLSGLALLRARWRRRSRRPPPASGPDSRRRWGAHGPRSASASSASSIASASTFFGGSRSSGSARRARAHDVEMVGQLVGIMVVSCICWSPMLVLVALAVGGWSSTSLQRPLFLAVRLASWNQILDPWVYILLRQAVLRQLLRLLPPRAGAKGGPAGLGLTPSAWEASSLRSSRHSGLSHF
Metric Name: IC50

Field IC50 (entry Cc1ccc(-c2cccc(CO)c2)nc1C(=O)Nc1c(C)ccc(C(=O)O)c1C ) reads > 25 µM

====

- Assay System: Cytochrome P450 2C9 (Homo sapiens, UniProt P11712)
- Sequence (P11712 whole entry): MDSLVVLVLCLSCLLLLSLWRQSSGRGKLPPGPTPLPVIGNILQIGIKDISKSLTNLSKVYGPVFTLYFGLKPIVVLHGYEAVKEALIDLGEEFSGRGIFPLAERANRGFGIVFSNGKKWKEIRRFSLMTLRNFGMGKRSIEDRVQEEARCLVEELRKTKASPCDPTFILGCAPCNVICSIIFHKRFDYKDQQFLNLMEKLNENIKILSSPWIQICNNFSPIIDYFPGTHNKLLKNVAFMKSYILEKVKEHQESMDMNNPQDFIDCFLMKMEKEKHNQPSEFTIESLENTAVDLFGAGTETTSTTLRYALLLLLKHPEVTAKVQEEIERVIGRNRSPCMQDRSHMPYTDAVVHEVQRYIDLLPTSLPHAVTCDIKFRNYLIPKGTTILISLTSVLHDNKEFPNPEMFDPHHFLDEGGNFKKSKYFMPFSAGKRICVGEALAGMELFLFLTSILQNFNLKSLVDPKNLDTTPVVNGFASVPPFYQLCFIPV
pIC50: −log10 of the molar value.
Metric Name: pIC50

With Cytochrome P450 2C9 (Homo sapiens, UniProt P11712) as the test system, Cc1ccc(-c2cccc(CO)c2)nc1C(=O)Nc1c(C)ccc(C(=O)O)c1C showed pIC50 of < 5.00

====

- Protocol Description: Volume of distribution at steady state in rat at 1 mg/kg, iv and 5 mg/kg, po
- Assay type: ADME, organism-based
- Recorded Conditions: in vivo, read-out: Vdss
Metric Name: Vd (L/kg)
Number in L/kg, nothing else.

Field Vd (entry Cc1ccc(-c2cccc(CO)c2)nc1C(=O)Nc1c(C)ccc(C(=O)O)c1C ) reads 0.16

====

- Assay System: UniProtKB P35408
- Sequence (P35408 whole entry): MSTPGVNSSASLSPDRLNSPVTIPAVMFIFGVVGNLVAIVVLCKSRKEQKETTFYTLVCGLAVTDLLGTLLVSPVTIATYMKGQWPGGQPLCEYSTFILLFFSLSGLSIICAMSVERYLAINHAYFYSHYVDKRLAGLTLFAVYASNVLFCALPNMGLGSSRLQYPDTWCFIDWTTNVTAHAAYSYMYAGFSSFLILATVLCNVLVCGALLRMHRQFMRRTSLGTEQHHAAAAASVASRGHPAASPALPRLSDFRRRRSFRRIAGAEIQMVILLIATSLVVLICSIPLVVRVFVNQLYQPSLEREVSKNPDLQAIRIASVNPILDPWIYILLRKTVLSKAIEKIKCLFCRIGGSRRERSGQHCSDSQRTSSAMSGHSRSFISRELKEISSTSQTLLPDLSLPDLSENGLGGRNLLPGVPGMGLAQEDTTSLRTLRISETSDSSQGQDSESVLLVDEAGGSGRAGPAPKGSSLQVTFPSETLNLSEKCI
- Protocol Description: Antagonist activity at EP4 receptor in LPS-stimulated human whole blood assessed as inhibition of PGE2-induced TNF-alpha release pretreated for 30 mins followed by addition of PGE2 measured after 20 to 24 hrs by immunoassay
- Assay type: tissue-based
So I've got a bunch of compounds here, and I need their pIC50 values.
In plain terms, pIC50 is the concentration in mol/L turned into minus its base-10 logarithm.

With UniProtKB P35408 as the test system, Cc1ccc(C(=O)O)c(C)c1NC(=O)c1cc(-c2cccc(CO)c2)ccc1F showed pIC50 of 7.14

With UniProtKB P35408 as the test system, Cc1ccc(-c2cccc(Cl)c2)nc1C(=O)Nc1c(C)ccc(C(=O)O)c1C showed pIC50 of 6.20

With UniProtKB P35408 as the test system, Cc1ccc(-c2cccc(CO)c2)cc1C(=O)Nc1c(C)ccc(C(=O)O)c1C showed pIC50 of 7.23

With UniProtKB P35408 as the test system, Cc1cc(C(=O)O)cc(C)c1NC(=O)c1cc(-c2cccc(CO)c2)ccc1F showed pIC50 of 7.32

With UniProtKB P35408 as the test system, Cc1ccc(C(=O)O)c(C)c1NC(=O)c1nc(-c2cccc(CO)c2)ccc1C(F)(F)F showed pIC50 of 7.23

With UniProtKB P35408 as the test system, Cc1cc(C(=O)O)cc(C)c1NC(=O)c1nc(-c2cccc(CO)c2)ccc1C(F)(F)F showed pIC50 of 6.92

With UniProtKB P35408 as the test system, Cc1ccc(-c2cccc(CO)c2)cc1C(=O)Nc1c(C)cc(C(=O)O)cc1C showed pIC50 of 7.73

With UniProtKB P35408 as the test system, Cc1ccc(-c2cccc(CO)c2)nc1C(=O)Nc1c(C)cc(C(=O)O)cc1C showed pIC50 of 7.25

With UniProtKB P35408 as the test system, Cc1ccc(-c2cccc(CO)c2)nc1C(=O)Nc1c(C)ccc(C(=O)O)c1C showed pIC50 of 7.41

====

Protein target, amino acids: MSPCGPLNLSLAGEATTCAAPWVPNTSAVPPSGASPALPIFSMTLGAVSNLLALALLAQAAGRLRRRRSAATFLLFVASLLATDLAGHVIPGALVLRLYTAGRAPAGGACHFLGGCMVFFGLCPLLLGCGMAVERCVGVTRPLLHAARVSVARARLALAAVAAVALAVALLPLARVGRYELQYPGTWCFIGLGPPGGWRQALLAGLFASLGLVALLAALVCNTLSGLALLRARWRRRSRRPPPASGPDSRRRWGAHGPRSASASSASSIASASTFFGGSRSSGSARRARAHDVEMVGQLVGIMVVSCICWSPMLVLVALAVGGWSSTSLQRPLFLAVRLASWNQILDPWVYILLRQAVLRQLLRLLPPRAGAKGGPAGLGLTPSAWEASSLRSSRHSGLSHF
Metric Name: Ki

Field Ki (entry Cc1ccc(-c2cccc(CO)c2)nc1C(=O)Nc1c(C)ccc(C(=O)O)c1C ) reads > 17.5 µM

====

- Protocol Description: Aqueous solubility of compound at pH 6 after 20 hrs by HPLC analysis
- Type: physicochemical
So I've got a bunch of molecules here, and I need their solubility at 20 h values.
Number in µg/mL, nothing else.

Field solubility at 20 h (entry Cc1ccc(-c2cccc(CO)c2)cc1C(=O)Nc1c(C)cc(C(=O)O)cc1C ) reads 31

Field solubility at 20 h (entry Cc1ccc(-c2cccc(CO)c2)nc1C(=O)Nc1c(C)ccc(C(=O)O)c1C ) reads 242

Field solubility at 20 h (entry Cc1ccc(-c2cccc(CO)c2)cc1C(=O)Nc1c(C)ccc(C(=O)O)c1C ) reads 783

Field solubility at 20 h (entry Cc1ccc(C(=O)O)c(C)c1NC(=O)c1cc(-c2cccc(CO)c2)ccc1F ) reads 709

Field solubility at 20 h (entry Cc1ccc(-c2cccc(CO)c2)nc1C(=O)Nc1c(C)cc(C(=O)O)cc1C ) reads 14

Field solubility at 20 h (entry Cc1cc(C(=O)O)cc(C)c1NC(=O)c1cc(-c2cccc(CO)c2)ccc1F ) reads 774

Field solubility at 20 h (entry Cc1ccc(C(=O)O)c(C)c1NC(=O)c1nc(-c2cccc(CO)c2)ccc1C(F)(F)F ) reads 29

Field solubility at 20 h (entry Cc1cc(C(=O)O)cc(C)c1NC(=O)c1nc(-c2cccc(CO)c2)ccc1C(F)(F)F ) reads 23

====

So I've got a bunch of compounds here, and I need their bioavailability values.
- Protocol Description: Oral bioavailability in rat
- Format: ADME, organism-based
- Recorded Conditions: in vivo
Number in %, nothing else.

Field bioavailability (entry Cc1ccc(C(=O)O)c(C)c1NC(=O)c1cc(-c2cccc(Cl)c2)cc2ccccc12 ) reads 100

Field bioavailability (entry Cc1ccc(C(=O)O)c(C)c1NC(=O)c1cc(-c2cccc(CO)c2)cc2ccccc12 ) reads 6

====

- Assay System: Cytochrome P450 2C8 (Homo sapiens, UniProt P10632)
- Sequence (P10632 whole entry): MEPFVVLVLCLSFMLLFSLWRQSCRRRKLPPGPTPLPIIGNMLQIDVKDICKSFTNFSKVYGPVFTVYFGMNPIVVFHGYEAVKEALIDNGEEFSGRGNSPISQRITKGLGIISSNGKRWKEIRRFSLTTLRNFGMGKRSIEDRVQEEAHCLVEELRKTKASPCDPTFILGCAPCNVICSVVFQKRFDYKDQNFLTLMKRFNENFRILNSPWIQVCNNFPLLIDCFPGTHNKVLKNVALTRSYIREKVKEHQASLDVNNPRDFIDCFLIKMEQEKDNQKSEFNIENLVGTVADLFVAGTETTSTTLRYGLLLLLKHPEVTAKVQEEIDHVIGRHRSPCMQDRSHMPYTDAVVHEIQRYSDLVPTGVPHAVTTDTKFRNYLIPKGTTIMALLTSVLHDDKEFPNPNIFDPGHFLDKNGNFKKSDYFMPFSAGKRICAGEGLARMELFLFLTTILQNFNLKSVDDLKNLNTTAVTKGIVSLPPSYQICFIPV
Metric Name: IC50

Field IC50 (entry Cc1ccc(-c2cccc(CO)c2)nc1C(=O)Nc1c(C)ccc(C(=O)O)c1C ) reads > 10 µM

====

So I've got a bunch of molecules here, and I need their bioavailability values.
- Protocol Description: Oral bioavailability in rat at 5 mg/kg
- Format: ADME, organism-based
- Recorded Conditions: in vivo
For clarity, give the value followed by its unit.

Field bioavailability (entry Cc1cc(C(=O)O)cc(C)c1NC(=O)c1nc(-c2cccc(CO)c2)ccc1C(F)(F)F ) reads 16%

Field bioavailability (entry Cc1ccc(-c2cccc(CO)c2)nc1C(=O)Nc1c(C)cc(C(=O)O)cc1C ) reads 36%

Field bioavailability (entry Cc1ccc(-c2cccc(CO)c2)cc1C(=O)Nc1c(C)ccc(C(=O)O)c1C ) reads 7%

Field bioavailability (entry Cc1cc(C(=O)O)cc(C)c1NC(=O)c1cc(-c2cccc(CO)c2)ccc1F ) reads 12%

Field bioavailability (entry Cc1ccc(-c2cccc(CO)c2)nc1C(=O)Nc1c(C)ccc(C(=O)O)c1C ) reads 22%

Field bioavailability (entry Cc1ccc(-c2cccc(CO)c2)cc1C(=O)Nc1c(C)cc(C(=O)O)cc1C ) reads 13%

Field bioavailability (entry Cc1ccc(C(=O)O)c(C)c1NC(=O)c1nc(-c2cccc(CO)c2)ccc1C(F)(F)F ) reads 13%
